target: T1, cynomolgus monkey transferrin (cynomolgus monkey, UniProt A0A2K5UXZ0 20-695); experiment: SPR, BIAcore T200, cynomolgus monkey transferrin as ligand, sdAb as analyte
T1 construct: also called cynomolgus transferrin
# Kd annotations
Record the value in pM, omitting the unit from your answer.

input: Supply reported Kd belonging to this binder: AS01299VH3a (VHH, Humanized variant of AS01299, C-terminal 6xHis tag) VHH: EVQLVESGGGLVQPGGSLRLSCAASGSIFSIATMAWYRQAPGKGLELVAGITRSGSTNYRDSVKGRFTISRDNSKNTMYLQMNSLRAEDTAVYYCTDYSSRYYHDYWGQGTLVTVSS
output: 57

input: Find the measured Kd of AS01299VH4 (VHH, Humanized variant of AS01299, C-terminal 6xHis tag) VHH: EVQLVESGGGLVQPGGSLRLSCAASGSIFSIATMAWYRQAPGKGLELVSGITRSGSTNYRDSVKGRFTISRDNSKNTLYLQMNSLRAEDTAVYYCTDYSSRYYHDYWGQGTLVTVSS and report it.
output: 54

input: Return reported Kd. Input binder: AS01299 sdAb (VHH, Llama sdAb made in E. coli with a C-terminal 6xHis tag; also called sdAb AS01299) VHH: QVQLVESGGGLVQPGGSLRLSCAASGSIFSIATMAWYRQAPGKQRELVAGITRSGSTNYRDSVKGRFTISRDNAKNTMYLQMNSLKPEDTAVYYCTDYSSRYYHDYWGQGTQVTVSS
output: 65

Hello, the source for this data is patent US20220033481A1, in case you need it.
